Molecular target: hMCHR (Homo sapiens, UniProt Q99705)
Sequence (Q99705 whole entry): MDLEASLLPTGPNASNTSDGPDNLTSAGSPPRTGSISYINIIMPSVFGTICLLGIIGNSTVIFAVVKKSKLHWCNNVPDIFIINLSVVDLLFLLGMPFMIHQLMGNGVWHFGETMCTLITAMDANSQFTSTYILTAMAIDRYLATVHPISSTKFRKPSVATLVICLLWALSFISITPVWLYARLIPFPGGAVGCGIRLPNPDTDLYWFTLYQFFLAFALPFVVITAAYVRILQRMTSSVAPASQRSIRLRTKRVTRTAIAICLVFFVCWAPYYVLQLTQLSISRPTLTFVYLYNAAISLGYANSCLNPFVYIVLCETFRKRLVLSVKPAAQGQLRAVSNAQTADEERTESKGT
pKi: −log10 of the molar value.
This listing pairs compounds with measured pKi.

Which measured pKi belongs to CN1CCC(CNC(=O)Nc2ccc(Cl)c(C(F)(F)F)c2)(c2ccc(-c3cccc(Cl)c3)cc2)CC1 , tested on hMCHR (Homo sapiens, UniProt Q99705)?
8.00 to 9.70

Request - read-out pKi | tested on hMCHR (Homo sapiens, UniProt Q99705) | compound CCCN(CCC)CC1(c2ccc(-c3cccc(C#N)c3)cc2)CCN(C(=O)Nc2cc(Cl)cc(Cl)c2)CC1
5.26 to 7.00

hMCHR (Homo sapiens, UniProt Q99705) / pKi / COCCN1CCC(CNC(=O)Nc2cc(Cl)cc(Cl)c2)(c2ccc(-c3ccc4c(c3)OCO4)cc2)CC1 : value?
7.00 to 7.96

Lab note: need pKi with hMCHR (Homo sapiens, UniProt Q99705) for entry CCCN1CCC(CNC(=O)Nc2ccc3c(c2)OCO3)(c2ccc(-c3cccc(C#N)c3)cc2)CC1 , please look it up.
7.00 to 7.96
